# targetOrTestSystem: T1, hCMV gB (expressed in HEK293T cells) (human cytomegalovirus, UniProt P06473 32-906)
# T1 construct: whole, on cells; also called envelope glycoprotein B; UL55
# T1 sequence (P06473 32-906 limits assumed): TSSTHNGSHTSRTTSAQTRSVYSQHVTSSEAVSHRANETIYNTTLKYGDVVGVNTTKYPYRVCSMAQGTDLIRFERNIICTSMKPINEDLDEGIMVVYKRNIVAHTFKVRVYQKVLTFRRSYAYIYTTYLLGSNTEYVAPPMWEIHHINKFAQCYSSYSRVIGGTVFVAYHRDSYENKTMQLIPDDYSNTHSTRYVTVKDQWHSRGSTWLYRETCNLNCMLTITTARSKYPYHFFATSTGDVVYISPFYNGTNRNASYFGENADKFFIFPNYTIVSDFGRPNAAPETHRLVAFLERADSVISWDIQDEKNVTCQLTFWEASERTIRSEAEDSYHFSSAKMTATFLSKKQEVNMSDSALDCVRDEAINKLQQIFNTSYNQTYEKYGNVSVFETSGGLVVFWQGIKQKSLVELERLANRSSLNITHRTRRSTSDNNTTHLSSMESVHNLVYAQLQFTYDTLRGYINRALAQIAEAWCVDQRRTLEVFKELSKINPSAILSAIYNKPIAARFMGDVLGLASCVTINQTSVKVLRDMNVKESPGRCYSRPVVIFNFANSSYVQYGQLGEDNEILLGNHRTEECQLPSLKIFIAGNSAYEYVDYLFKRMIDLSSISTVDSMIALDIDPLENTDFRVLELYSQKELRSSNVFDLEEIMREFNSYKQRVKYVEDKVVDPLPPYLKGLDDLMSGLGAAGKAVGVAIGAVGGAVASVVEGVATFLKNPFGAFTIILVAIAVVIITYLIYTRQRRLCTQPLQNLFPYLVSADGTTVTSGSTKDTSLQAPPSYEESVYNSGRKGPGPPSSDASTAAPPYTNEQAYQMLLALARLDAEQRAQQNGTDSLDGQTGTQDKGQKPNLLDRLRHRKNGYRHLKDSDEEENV
# testSummary: competitor: 10C6-biotin; cell staining
measuredMetric: Inhibition of binding (%)
Write the value in % as a bare number.

Record excerpt, results attached:
7H3 (antibody, V domains shown, human IgG; also called 7H3-biotin) VH: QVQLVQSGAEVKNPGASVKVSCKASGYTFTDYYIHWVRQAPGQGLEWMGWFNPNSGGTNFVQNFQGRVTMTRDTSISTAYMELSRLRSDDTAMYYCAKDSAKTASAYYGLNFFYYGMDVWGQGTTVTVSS VL: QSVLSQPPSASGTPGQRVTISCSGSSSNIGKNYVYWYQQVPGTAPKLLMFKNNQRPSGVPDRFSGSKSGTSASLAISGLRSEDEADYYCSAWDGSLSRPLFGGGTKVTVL	0
10C6 (antibody, V domains shown, human IgG; also called 10C6-biotin) VH: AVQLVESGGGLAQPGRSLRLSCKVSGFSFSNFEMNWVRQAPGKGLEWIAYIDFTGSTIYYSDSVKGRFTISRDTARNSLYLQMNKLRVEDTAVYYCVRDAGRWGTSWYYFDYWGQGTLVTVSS VL: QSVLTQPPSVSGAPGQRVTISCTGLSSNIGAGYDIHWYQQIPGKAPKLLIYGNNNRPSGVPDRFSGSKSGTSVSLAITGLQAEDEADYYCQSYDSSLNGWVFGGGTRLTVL	100

Name the recorded Inhibition of binding (%) of the binder listed here: 6B4 (antibody, V domains shown, human IgG; also called 6B4-biotin) VH: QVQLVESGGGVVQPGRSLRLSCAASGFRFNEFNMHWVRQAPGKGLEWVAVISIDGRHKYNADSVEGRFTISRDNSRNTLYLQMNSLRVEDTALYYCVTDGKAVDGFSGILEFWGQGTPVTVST VL: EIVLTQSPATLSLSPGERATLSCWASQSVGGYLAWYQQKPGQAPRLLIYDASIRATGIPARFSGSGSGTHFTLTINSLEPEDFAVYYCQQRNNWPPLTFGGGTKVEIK
0

Just for reference, patent US20170129940A1 is where these values come from.
